test: Determination of HPLC retention time (RP-HPLC, polarity); format: physicochemical; conditions: RP-HPLC C18, MeCN/water gradient with 0.1% TFA
Measured Quantity: retention time (min)
One number for each entry, in min.

Molecule	Measured Quantity	Unit Symbol	Val
CN(C(=O)OCCCCCNC(=O)OCC1C2CCC#CCCC21)S(=O)(=O)NCc1ccccc1 (stereo not drawn)	retention time	min	12.7
O=C(CCCCCCNC(=O)OCC1C2CCC#CCCC21)NS(=O)(=O)NCc1ccccc1 (stereo not drawn)	retention time	min	11.6
COc1cc2cc(c1Cl)N(C)C(=O)C[C@H](OC(=O)[C@H](C)N(C)C(=O)CCCCCNC(=O)CCOCCOCCOCCOCCOCCOCCOCCOCCOCCOCCOCCOCCOCCOCCOCCOCCOCCOCCOCCOCCOCCOCCOCCOCCNC(=O)OCC1C3CCC#CCCC31)[C@]1(C)O[C@H]1[C@H](C)[C@@H]1C[C@@](O)(NC(=O)O1)[C@H](OC)/C=C/C=C(\C)C2 (stereo partly drawn)	retention time	min	9.7
COc1cc2cc(c1Cl)N(C)C(=O)C[C@H](OC(=O)[C@H](C)N(C)C(=O)CCCCCNC(=O)OCc1ccc(NC(=O)[C@H](CCCNC(N)=O)NC(=O)[C@@H](NC(=O)OCCOCCNS(=O)(=O)NC(=O)OCC3C4CCC#CCCC43)C(C)C)cc1)[C@]1(C)O[C@H]1[C@H](C)[C@@H]1C[C@@](O)(NC(=O)O1)[C@H](OC)/C=C/C=C(\C)C2 (stereo partly drawn)	retention time	min	10.4
COc1cc2cc(c1Cl)N(C)C(=O)C[C@H](OC(=O)[C@H](C)N(C)C(=O)CCCCCNC(=O)CCOCCOCCOCCOCCNC(=O)OCC1C3CCC#CCCC31)[C@]1(C)O[C@H]1[C@H](C)[C@@H]1C[C@@](O)(NC(=O)O1)[C@H](OC)/C=C/C=C(\C)C2 (stereo partly drawn)	retention time	min	10.5

Proceed to the following item.
Using the record for O=C(NCCCCCOC(=O)NS(=O)(=O)NCc1ccccc1)OCC1C2CCC#CCCC21 (stereo not drawn) , report its retention time.
11.6
